# ASSAY PROCEDURE: Cmax in Swiss mouse at 10 mg/kg, po by ESI-LC/MS/MS method
# Format: ADME, organism-based
# Parameters: dose 10 mg/kg, route oral
# CONDITIONS USED: in vivo
ENDPOINT: Cmax (µM)
Number in µM, nothing else.

Examples from the recorded data:
>>> recorded_value("CC(C)[C@H](NC(=O)c1ncc(-c2ccc(NC(=O)c3ccc(C(C)(C)C)cc3)cc2)s1)C(=O)O")
11.3
>>> recorded_value("CC(C)[C@H](NC(=O)c1ccc(-c2ccc(Nc3nc4ccc(F)cc4s3)cc2)cc1)C(=O)O")
5.3

The record that follows has no Cmax shown yet.
Please indicate Cmax recorded for CC(C)[C@H](NC(=O)c1ncc(-c2ccc(NC(=O)Nc3ccccc3Cl)cc2)s1)C(=O)O
1.9

* * *

Reported Tmax values are given for each entry in this list.
# ASSAY PROCEDURE: Tmax in Swiss mouse at 10 mg/kg, po by ESI-LC/MS/MS method
# Assay type: ADME, organism-based
# Design: dose 10 mg/kg, route oral
# CONDITIONS USED: in vivo
Include the unit after the number when you answer.

>>> recorded_value("CC(C)[C@H](NC(=O)c1ccc(-c2ccc(Nc3nc4ccc(F)cc4s3)cc2)cc1)C(=O)O")
"15 min"

Please indicate Tmax recorded for CC(C)[C@H](NC(=O)c1ncc(-c2ccc(NC(=O)Nc3ccccc3Cl)cc2)s1)C(=O)O
9.6 min

Please indicate Tmax recorded for CC(C)[C@H](NC(=O)c1ncc(-c2ccc(NC(=O)c3ccc(C(C)(C)C)cc3)cc2)s1)C(=O)O
10.2 min

* * *

# ASSAY PROCEDURE: Half life in Swiss mouse at 10 mg/kg, po by ESI-LC/MS/MS method
# Format: ADME, organism-based
# Parameters: dose 10 mg/kg, route oral
# CONDITIONS USED: in vivo
Reported half-life values are given for each entry in this list.
Number in min, nothing else.

Examples from the recorded data:
>>> recorded_value("CC(C)[C@H](NC(=O)c1ccc(-c2ccc(Nc3nc4ccc(F)cc4s3)cc2)cc1)C(=O)O")
37.2
>>> recorded_value("CC(C)[C@H](NC(=O)c1ncc(-c2ccc(NC(=O)Nc3ccccc3Cl)cc2)s1)C(=O)O")
29.4

Please indicate half-life recorded for CC(C)[C@H](NC(=O)c1ncc(-c2ccc(NC(=O)c3ccc(C(C)(C)C)cc3)cc2)s1)C(=O)O
49.8
